Form field: Population Tubulin-Different-Phenotype (%) (one value per entry).
test system: U2OS; assay: Multiplex assay against U2OS; type: toxicity, cell-based; settings: human, 12 h, 10 µM, compound concentration 10 uM, replicate 2
Give just the number in %; leave the unit off.

Here is how some compounds turned out for Population Tubulin-Different-Phenotype (%).
Cc1c[nH]c2nccc(Oc3c(F)cc(Nc4cc(Cl)nc(N)n4)cc3F)c12 | 10
O=C(c1cc2c(cc1F)OC(c1ccc(F)cc1)(c1ccc(Cl)cc1Cl)O2)N1CCOCC1 (centres undefined) | 100
CC(C)NC(=O)N1CC[C@H](NC2=Nc3cc(F)ccc3N(CC(F)F)c3ccc(Cl)cc32)C1 | 58

Now turn to the next compound.
U2OS Population Tubulin-Different-Phenotype (%) of CCC1=C[C@@H]2C[N@](C1)Cc1c([nH]c3ccccc13)[C@@](C(=O)OC)(c1cc3c(cc1OC)N(C)[C@H]1[C@@](O)(C(=O)OC)[C@H](OC(C)=O)[C@]4(CC)C=CCN5CC[C@]31[C@@H]54)C2.O=C(O)C(O)C(O)C(=O)O.O=C(O)C(O)C(O)C(=O)O [VINORELBINE TARTRATE] is 45

---

Form field: Population Mitotic Cells (%) (one value per entry).
test system: Fibroblast; experiment: Multiplex assay against human fibroblast; assay type: toxicity, cell-based; conditions: 48 h, 1 µM, compound concentration 1 uM, replicate 2
Give just the number in %; leave the unit off.

Cc1ccccc1C(c1ccccc1C)N1C2CCC1CC(O)(c1ccccc1)C2 (centres undefined) | 0
CC(C)OC(=O)N1CCC(Oc2ncnc3c2cnn3-c2ccc(S(C)(=O)=O)cc2F)CC1 | 0
CCc1nn(CCCN2CCN(c3cccc(Cl)c3)CC2)c(=O)n1CCOc1ccccc1.Cl [NEFAZODONE HYDROCHLORIDE] | 50
COc1cc2ncn(-c3cc(OCc4ccccc4C(F)(F)F)c(C(N)=O)s3)c2cc1OC [GW843682X] | 25
Cc1ccc2c(c1)c1c(n2CCc2ccc(C)nc2)CCN(C)C1 [LATREPIRDINE] | 0

Sure, the documented Population Mitotic Cells (%) for O=C(c1cc2c(cc1F)OC(c1ccc(F)cc1)(c1ccc(Cl)cc1Cl)O2)N1CCOCC1 (centres undefined) is 66

Sure, the documented Population Mitotic Cells (%) for COc1ccccc1CN[C@H]1C2CCN(CC2)[C@H]1C(c1ccccc1)c1ccccc1 is 50

Sure, the documented Population Mitotic Cells (%) for CC1=C(C(=O)Nc2cc3cn[nH]c3cc2F)C(c2ccc(C(F)(F)F)cc2)CC(=O)N1 (centres undefined) is 66

Sure, the documented Population Mitotic Cells (%) for CC(C)NC(=O)N1CC[C@H](NC2=Nc3cc(F)ccc3N(CC(F)F)c3ccc(Cl)cc32)C1 is 66

---

tested on: HEK-293T; test: Multiplex assay against HEK293T; assay type: toxicity, cell-based; conditions: human, 24 h, 1 µM, compound concentration 1 uM, replicate 1
Quick rule: Population Mitochondria Different-Phenotype (%) of at least 60% means yes, below that means no.

Recorded results for 8 compounds are shown here.
C=CC(=O)Nc1cccc(Oc2nc(Nc3ccc(N4CCN(C)CC4)cc3OC)ncc2Cl)c1 | no
CC1=C(C(=O)Nc2cc3cn[nH]c3cc2F)C(c2ccc(C(F)(F)F)cc2)CC(=O)N1 (stereo not given) | no
C=CC(=O)Nc1cccc(Sc2nc(Nc3ccc(N4CCN(C)CC4)cc3)ncc2Cl)c1 | no
COc1cc2ncn(-c3cc(OCc4ccccc4C(F)(F)F)c(C(N)=O)s3)c2cc1OC [GW843682X] | yes
COc1ccccc1CN[C@H]1C2CCN(CC2)[C@H]1C(c1ccccc1)c1ccccc1 | yes
CC(C)CC(=O)Nc1[nH]nc2c1CN(C(=O)C1CCN(C)CC1)C2(C)C | no
CC(C)Oc1ccccc1C(=O)Nc1ccccc1C(=O)Nc1cccc(S(=O)(=O)C(F)(F)F)c1 | yes
CC(C)NC(=O)N1CC[C@H](NC2=Nc3cc(F)ccc3N(CC(F)F)c3ccc(Cl)cc32)C1 | yes

Now let's try a different one.
Ask | Hi team, for O=c1[nH]c2ccccc2n1C1CCN(Cc2ccc(-c3[nH]c4cc5ncnc5cc4nc3-c3ccccc3)cc2)CC1 , is the recorded Population Mitochondria Different-Phenotype (%) at or above 60%?
Reply | no

---

system: HEK-293T; experiment: Multiplex assay against HEK293T; format: toxicity, cell-based; conditions: human, 24 h, 10 µM, compound concentration 10 uM, replicate 1
Population Hoechst High Intensity Objects (%) vs 20%: less than gives Met; not less than gives Not met.

Recorded results for 5 compounds are shown here.
Cl.O=C(O)c1cc(-c2ccc(C3CCNCC3)cc2)c2ccc(-c3ccc(C(F)(F)F)cc3)cc2c1 | Met
C=CC(=O)Nc1cccc(Sc2nc(Nc3ccc(N4CCN(C)CC4)cc3)ncc2Cl)c1 | Met
Cc1c[nH]c2nccc(Oc3c(F)cc(Nc4cc(Cl)nc(N)n4)cc3F)c12 | Met
CCCSc1nc(N[C@@H]2C[C@H]2c2ccc(F)c(F)c2)c2nnn([C@@H]3C[C@H](OCCO)[C@@H](O)[C@H]3O)c2n1 | Not met
C=CC(=O)Nc1ccc2[nH]c(=O)n(C3CCN(Cc4ccc(-c5nc6cc[nH]c(=O)c6cc5-c5ccccc5)cc4)CC3)c2c1 | Met

Ask | Answer whether the compound CCc1nn(CCCN2CCN(c3cccc(Cl)c3)CC2)c(=O)n1CCOc1ccccc1.Cl [NEFAZODONE HYDROCHLORIDE] has Population Hoechst High Intensity Objects (%) strictly less than 20%
Reply | Not met

Ask | Answer whether the compound CN1CCN(Cc2ccc(Nc3ncc(Cl)c(Nc4ccccc4S(=O)(=O)N(C)C)n3)cc2)CC1 has Population Hoechst High Intensity Objects (%) strictly less than 20%
Reply | Met

Ask | Answer whether the compound Cc1nc(N2CC[C@H](O)C2)ncc1-c1cc(C(F)(F)F)cc2[nH]ncc12 has Population Hoechst High Intensity Objects (%) strictly less than 20%
Reply | Met

Ask | Answer whether the compound O=C(c1cc2c(cc1F)OC(c1ccc(F)cc1)(c1ccc(Cl)cc1Cl)O2)N1CCOCC1 (centres undefined) has Population Hoechst High Intensity Objects (%) strictly less than 20%
Reply | Met

---

Form field: Population Membrane Permeable-Phenotype (%) (one value per entry).
system: U2OS; test: Multiplex assay against U2OS; format: toxicity, cell-based; settings: human, 24 h, 10 µM, compound concentration 10 uM, replicate 2
Give just the number in %; leave the unit off.

Here is how some compounds turned out for Population Membrane Permeable-Phenotype (%).
CNC(=O)Nc1ccc(-c2nc(N3CC4CCC(C3)O4)c3cnn(C4CCC5(CC4)OCCO5)c3n2)cc1 | 44
O=C(c1cc2c(cc1F)OC(c1ccc(F)cc1)(c1ccc(Cl)cc1Cl)O2)N1CCOCC1 (centres undefined) | 64
Cc1c[nH]c2nccc(Oc3c(F)cc(Nc4cc(Cl)nc(N)n4)cc3F)c12 [BAY-549] | 11
C[C@]12CC[C@@H]3c4ccc(O)cc4CC[C@H]3[C@@H]1CC[C@@H]2O [ESTRADIOL] | 5

Sure, the documented Population Membrane Permeable-Phenotype (%) for CC(C)CC(=O)Nc1[nH]nc2c1CN(C(=O)C1CCN(C)CC1)C2(C)C [PHA-793887] is 21

Sure, the documented Population Membrane Permeable-Phenotype (%) for O=c1[nH]c2ccccc2n1C1CCN(Cc2ccc(-c3[nH]c4cc5ncnc5cc4nc3-c3ccccc3)cc2)CC1 is 72

Sure, the documented Population Membrane Permeable-Phenotype (%) for C=CC(=O)Nc1cccc(Sc2nc(Nc3ccc(N4CCN(C)CC4)cc3)ncc2Cl)c1 is 23

Sure, the documented Population Membrane Permeable-Phenotype (%) for CCc1ccc(OCc2ccccc2C(=O)Nc2ccc3nc(C)cc(N)c3c2)cc1.Cl is 47

Sure, the documented Population Membrane Permeable-Phenotype (%) for COc1cc2ncn(-c3cc(OCc4ccccc4C(F)(F)F)c(C(N)=O)s3)c2cc1OC [GW843682X] is 41

---

test system: Fibroblast; experiment: Multiplex assay against human fibroblast; format: toxicity, cell-based; settings: 12 h, 1 µM, compound concentration 1 uM, replicate 1
Quick rule: Population Tubulin-Different-Phenotype (%) of at least 50% means Criterion met, below that means Criterion not met.

Recorded results for 3 compounds are shown here.
CCc1ccc(OCc2ccccc2C(=O)Nc2ccc3nc(C)cc(N)c3c2)cc1.Cl | Criterion met
O=C(c1cc2c(cc1F)OC(c1ccc(F)cc1)(c1ccc(Cl)cc1Cl)O2)N1CCOCC1 (stereo unspecified) | Criterion met
CC1=C(C(=O)Nc2cc3cn[nH]c3cc2F)C(c2ccc(C(F)(F)F)cc2)CC(=O)N1 (stereo unspecified) | Criterion not met

Ask | Hi team, for O=c1cc(N2CCOCC2)oc2c(-c3cccc4c3sc3ccccc34)cccc12 , is the recorded Population Tubulin-Different-Phenotype (%) at or above 50%?
Reply | Criterion not met

Ask | Hi team, for CNC(=O)Nc1ccc2c(c1)[C@@]1(CC2)OC(=O)N(CC(=O)N(Cc2ccc(F)cc2)[C@@H](C)C(F)(F)F)C1=O [A-486] , is the recorded Population Tubulin-Different-Phenotype (%) at or above 50%?
Reply | Criterion met

Attribution: ChEMBL document CHEMBL4689842
